Ref: PubChem BioAssay (Tox21)

- METHOD_NOTES: qHTS assay to test for compound auto fluorescence at 460 nm (blue) in HepG2 cells (AID 720687); note: % is set by controls: 0 for no effect and ±100 for the full control effect
- MEASUREMENT_PARAMETERS: autofluorescence 405/460 nm, 1 h; series mostly up to 91.3 µM
Calls of active or inactive are those of the source. Calls come from the whole dose curve; as a rule, active = well fitted curve in the direction sought with a large enough effect in the repeat runs; inconclusive = weak or mixed curves; inactive = flat fitted curve, though single readings scatter.
METRIC_NAME: fluorescence, % of fluorescent control

compound="CCCCN1CCCC1C(=O)Nc1c(C)cc(C)cc1C (centres undefined)" measured_value=inactive
compound=O=C(/C=C/c1ccc(O)c(O)c1)O[C@@H]1C[C@@](OC(=O)/C=C/c2ccc(O)c(O)c2)(C(=O)O)C[C@@H](O)[C@@H]1O measured_value=inactive
compound=COc1ccccc1Oc1c(NS(=O)(=O)c2ccc(C(C)(C)C)cc2)nc(-c2ncccn2)nc1OCCO measured_value=inactive
compound=Cc1[nH]cnc1CN1CCc2c(c3ccccc3n2C)C1=O measured_value=inactive
compound=Nc1nnc(-c2ccc([N+](=O)[O-])o2)o1 measured_value=inactive

Proceeding to the next compound to report its fluorescence, % of fluorescent control.
Kindly note the recorded fluorescence, % of fluorescent control for CC(=O)OCC[N+](C)(C)C , which is inactive

* * *

- ASSAY_TARGET: Cytochrome P450 2C9 (Homo sapiens)
- METHOD_NOTES: Cytochrome P450 Family 2 Subfamily C Member 9 (CYP2C9) small molecule antagonists: luciferase reporter qHTS assay (AID 1671198); note: nearly all actives have a fitted effect of over 50% in size
- MEASUREMENT_PARAMETERS: P450-Glo CYP2C9 enzyme assay, luciferin luminescence; series mostly up to 115 µM
Results filed as inconclusive are left out. Active and inactive are the calls of the source. Calls come from the whole dose curve; as a rule, active = well fitted inhibition curve with a large enough effect in the repeat runs; inconclusive = weak or mixed curves; inactive = no such curve, though single readings can be large or run the other way.
Respond using exactly one of the listed classes: YES for active, NO for inactive

What was the test verdict on N#[N+]c1ccc2c(S(=O)(=O)[O-])cccc2c1O ? YES

What was the test verdict on CC(CCC(=O)O)C(=O)O (stereo unspecified) ? NO

What was the test verdict on CCOc1ccc(Cc2nccc3cc(OCC)c(OCC)cc23)cc1OCC ? YES

What was the test verdict on CCOc1cccc(-n2cc(C(=O)N3CCN(c4cc(C(=O)O)c5ccccc5c4)CC3)nc2-c2ccc(C)cc2)c1 ? YES

What was the test verdict on CN(C(=O)CN(CCO)CC(=O)N(C)C(C)(C)Cc1ccccc1)C(C)(C)Cc1ccccc1 ? YES

What was the test verdict on Cc1ccc(OC(=O)c2ccccc2O)cc1 ? YES

What was the test verdict on C/C=C(/C(=C/C)c1ccc(O)cc1)c1ccc(O)cc1 ? YES

What was the test verdict on CCOC(=O)[C@H](CCc1ccccc1)N[C@@H](C)C(=O)N(CC(=O)O)C1Cc2ccccc2C1 ? YES

What was the test verdict on NC1[C@H]2CN(c3nc4c(cc3F)c(=O)c(C(=O)O)cn4-c3ccc(F)cc3F)C[C@@H]12 (stereo partly specified) ? NO

What was the test verdict on Cc1cccc(O)c1N ? YES

What was the test verdict on CCC(C)COC(=O)CC(C)C (stereo unspecified) ? YES

* * *

- METHOD_NOTES: qHTS assay to identify small molecule agonists of the constitutive androstane receptor (CAR) signaling pathway - cell viability counter screen (AID 1224836); note: nearly all actives have a fitted effect of over 45% in size
- MEASUREMENT_PARAMETERS: HepG2-CYP2B6-hCAR viability, CellTiter-Fluor, 23 h, PK11195 added to every well; series mostly up to 92.4 µM
Records with an inconclusive call do not appear. Activity calls are given as the source filed them. Calls follow the shape of the dose curve; as a rule, active = well fitted cell-killing curve with a large enough effect in the repeat runs; inconclusive = weak or mixed curves, or effect the other way; inactive = flat fitted curve, though single readings scatter.
Respond using exactly one of the listed classes: yes (1) = active, no (0) = inactive

What was the test verdict on COC(=O)CS ? no (0)

What was the test verdict on O=C(Cn1ccnc1[N+](=O)[O-])NCCO ? no (0)

What was the test verdict on C=C(C)C(=O)OCCOCCOC(=O)C(=C)C ? no (0)

What was the test verdict on OC(CCN1CCCC1)(c1ccccc1)C1CCCCC1 (centres undefined) ? no (0)

What was the test verdict on O=[N+]([O-])c1cc(C2CCCCC2)c(O)c([N+](=O)[O-])c1 ? yes (1)

What was the test verdict on CCCCCCCC/C=C\CCCCCCCCO ? no (0)

What was the test verdict on CCOC(C)=O ? no (0)

What was the test verdict on C=CC(=O)OCC1CC2CC1C1CCC(COC(=O)C=C)C21 (centres undefined) ? no (0)

What was the test verdict on CC(=O)c1cc2ccccc2s1 ? no (0)

What was the test verdict on C=CC(C)(CCC=C(C)C)OC(=O)CC(C)C (centres undefined) ? no (0)

What was the test verdict on C[C@H]1C[C@H](O)c2ccsc2S1(=O)=O ? no (0)

What was the test verdict on CCN(CC)CCNC(=O)COc1ccc(OC)cc1 ? no (0)

What was the test verdict on CCCC(=O)C(=O)O ? no (0)

What was the test verdict on C/C=C\C/C=C/CCCCCCCCOC(C)=O ? no (0)
